Tested on: HCC-2998 colon
protocol: NCI tumour cell line growth inhibition, 48 h
readout.label: TGI

Look over these answered cases.
[
  {
    "compound": "Cc1cccc(C2ON=C(c3ccccc3)N2C23CC4CC(CC(C4)C2)C3)c1 (stereo not given)",
    "recorded.result": "> 10 µM"
  },
  {
    "compound": "O=C1N/C(=N\\N=C\\c2ccccc2)C(c2ccccc2)O1 (stereo not given)",
    "recorded.result": "> 100 µM"
  },
  {
    "compound": "CC1=C(c2nc3ccccc3s2)C(=O)OC1(C)C",
    "recorded.result": "> 100 µM"
  },
  {
    "compound": "COC(=O)C(CC(C)C)NC(=O)C(NC(=O)c1ccc(-c2ccc(Cl)cc2Cl)o1)C(C)C (stereo not given)",
    "recorded.result": "31.7 µM"
  },
  {
    "compound": "c1ccc(-c2oc(-c3ccccc3)c(CN3CCCCC3)c2CN2CCCCC2)cc1",
    "recorded.result": "4.23 µM"
  }
]

Count: 3. Required value per item: TGI.
1. COc1cc[c]([Sn]([c]2ccc(OC)cc2)([c]2ccc(OC)cc2)[c]2ccc(OC)cc2)cc1
2. O=C1CC(c2c[nH]c3ccc(F)cc23)C(=O)N1 (stereo not given)
3. O=C1[C@@H]2C(c3ccc(Br)cc3)=NO[C@@H]2C(=O)N1c1ccc(Cc2ccc(N3C(=O)[C@H]4C(c5ccc(Br)cc5)=NO[C@H]4C3=O)cc2)cc1

Return:
["50.5 µM", "> 100 µM", "> 3.48 µM"]

Count: 5. Required value per item: TGI.
1. COc1ccc2[nH]c3c(c2c1)[C@H](c1ccccc1)C[C@@H]1C(=O)N(c2ccccc2)C(=O)[C@H]31
2. CN(C)CCNC(=O)c1cccc2c1nc(-c1ccc(F)cc1)c1ccccc12
3. N#C/C(=C\c1ccncc1)c1csc2ccccc12
4. COc1ccccc1NC(=O)C1=C(C)NC(C)=C(C(=O)Nc2ccccc2OC)C1c1ccccc1[N+](=O)[O-]
5. CCOc1ccccc1N=Nc1ccc2oc(=O)c(C(C)=O)cc2c1

Return:
1: > 100 µM; 2: 16.7 µM; 3: 35.8 µM; 4: 33 µM; 5: > 100 µM

Count: 6. Required value per item: TGI.
1. CCNC(=O)C(C)C1CCC2(C)C=CC(=O)C(C)=C2C1O (stereo not given)
2. Cc1ccc(NC(=O)CCCC(=O)CC(=O)c2ccc(Br)cc2)cc1
3. CCOC(=O)C(C)(NC(=O)c1ccc(NCc2ccc3nc(NC(=O)c4ccccc4)nc(NC(=O)c4ccccc4)c3c2)cc1)C(=O)OCC
4. O=C1NC(=NCc2ccccc2Cl)S/C1=C\c1ccc2ncccc2c1
5. CCS(=O)C(=O)N(O)c1ccc(Cl)cc1 (stereo not given)
6. COc1cc2c(c(OC)c1OC)-c1ccc(NN(C(=O)c3ccccc3)C(=O)c3ccccc3)c(=O)cc1[C@@H](NC(C)=O)CC2 (tested in a mixture with another compound)

Return:
1. > 100 µM
2. > 100 µM
3. 69.7 µM
4. > 25 µM
5. > 100 µM
6. 12.7 µM

Count: 7. Required value per item: TGI.
1. CC1(C)OC(=O)C(C)(C)C(=O)O1
2. CSc1ccc(C2=C(c3ccccc3)C(=O)OC2)cc1
3. C=C1C(=O)O[C@H]2[C@H]1CC/C(COC(=O)c1cc(OC)c(OC)c(OC)c1)=C\CC[C@@]1(C)O[C@@H]21
4. Nc1nncc2c1c(Br)cn2C1OC(CO)C(O)C1O (stereo not given)
5. C[C@@H](CC(O)C(O)C(C)(C)O)C1CCC23CC12CCC1[C@@]2(C)CCC(O)C(C)(C)C2CC(OC2OC(CO)C(O)C(O)C2O)[C@]13C (stereo not given in full)
6. CC1=NN(c2nc(N)nc(NS(=O)(=O)c3cc(C)c(Cl)cc3S)n2)C(C)(C)C1
7. C#Cc1cccc(Nc2ncnc3cc(NC(=O)CCl)ccc23)c1

Return:
1. > 100 µM
2. 18.9 µM
3. 3.88 µM
4. > 100 µM
5. > 10 µM
6. > 10 µM
7. 8.46 µM

// data source = PubChem BioAssay (NCI)
